The reported numbers originate from ChEMBL document CHEMBL3351656.

Experiment: Solubility of the compound at pH 7.4
Assay type: physicochemical
Conditions: buffer
Use true (1) when the recorded solubility is no lower than 90 µg/mL; use false (0) when it is lower.

Is it the case that "CC(C)(NC(=O)Cc1csc(-c2ncc(C#N)cc2O)n1)C(=O)O" has solubility reaching or exceeding 90 µg/mL? false (0)

# bool: solubility of "N#Cc1cnc(-c2nc(CC(=O)N3CCCC3)cs2)c(O)c1" >= 90 µg/mL true (1)

Form field: solubility at least 90 µg/mL? Entry: "CCN(CC)CCNC(=O)Cc1csc(-c2ncc(C#N)c(C)c2O)n1" true (1)

Further cases:
Hi team, for "Cc1c(C#N)cnc(-c2nc(CC(=O)NCCc3ccccn3)c(-c3ccccc3)s2)c1O" , is the recorded solubility at or above 90 µg/mL? false (0)

Test whether the compound "N#Cc1cnc(-c2nc(CC(=O)NCCc3ccccn3)cs2)c(O)c1" records solubility of 90 µg/mL or higher. true (1)

Answer whether solubility of "N#Cc1cnc(-c2nc(CC(=O)NCCc3ccccn3)c(-c3ccccc3)s2)c(O)c1" is greater than or equal to 90 µg/mL. true (1)

---

List of solubility values.
Assay: Solubility of the compound at pH 7.4
Type: physicochemical
Conditions: buffer

Item "N#Cc1cnc(-c2nc(CC(=O)N[C@@H](CO)c3ccccc3)cs2)c(O)c1" has what recorded solubility? > 188 µg/mL

Please look up its solubility: "N#Cc1cnc(-c2nc(CC(=O)NCCc3ccccc3)cs2)c(O)c1" 13.6 µg/mL

What solubility value was documented for this compound, "N#Cc1cnc(-c2nc(CC(=O)NCc3ccccc3)cs2)c(O)c1" ? 24.1 µg/mL

Need solubility, item "N#Cc1cnc(-c2nc(CC(=O)NCC(=O)O)cs2)c(O)c1" 106 µg/mL

Turning to the following compound.
Consider the compound "N#Cc1cnc(-c2nc(CC(=O)N[C@H](CO)c3ccccc3)cs2)c(O)c1" and give its measured solubility. > 188 µg/mL

---

Test: Solubility of the compound at pH 7.4
Assay type: physicochemical
Settings: buffer
READOUT: solubility (µg/mL)
Answer format: numeric, µg/mL implied, no suffix.

Dear colleague, I am looking for the recorded solubility of the following compound: "CCN(CC)CCNC(=O)Cc1nc(-c2ncc(C#N)c(C)c2O)sc1C" 85.9

Given the compound "Cc1sc(-c2ncc(C#N)c(C)c2O)nc1CC(=O)NCCc1ccccn1" , what is its reported solubility? 6.4

# input compound: "CCNC(=O)Cc1nc(-c2ncc(C#N)c(C)c2O)sc1C" ; wanted: its solubility 13.9

Recorded solubility of "Cc1c(C#N)cnc(-c2nc(CC(=O)NCCc3ccccn3)cs2)c1O" , please. 11.2

In the following, a different compound is considered.
Quick check: solubility of "Cc1sc(-c2ncc(C#N)cc2O)nc1CC(=O)NCCc1ccccn1" ? 78.4
